Measurement Protocol: RPMI8226 myeloma cell viability, profiling panel, resazurin fluorescence, basal, 24 h, PK04 Diversity Set (AID 1180);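 also: RPMI8826 multiple myeloma cell line at 5000 cells per well; test concentration not given here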
Conditions: higher = more signal

[
  {
    "Compound": "CN1C(=O)C2C=CC(C(O)c3ccc(N(C)C)cc3)N(Nc3ccc([N+](=O)[O-])cc3[N+](=O)[O-])C2C1=O (stereo unspecified)",
    "z-score": 0.236
  },
  {
    "Compound": "CO[C@H]1COC(=O)CC=C[C@H](C)[C@@H](OC)COC(=O)CC=C[C@@H]1C",
    "z-score": 0.749
  },
  {
    "Compound": "CC(C)C[C@@H]1NC(=O)[C@H](CC(C)C)NC(=O)[C@@]23C(=O)N[C@@H](Cc4ccccc4)C2[C@H](C)[C@@]2(C)O[C@H]2C3/C=C/CC/C=C/CNC1=O (stereo partly specified)",
    "z-score": 0.0441
  },
  {
    "Compound": "COc1ccc([Si](C)(C)[C@H]2[C@H](CCO)O[C@@]3(C(=O)N(Cc4ccc(N5CCCCC5=O)cc4)c4ccccc43)[C@@H]2C)cc1",
    "z-score": -2.73
  },
  {
    "Compound": "CCC1=C2CN(Cc3ccccc3Br)[C@@H]([C@@H](O)Cc3ccccc3)C2C=CCC1 (stereo partly specified)",
    "z-score": -1.25
  },
  {
    "Compound": "N#Cc1ccc(NN2C(C(O)CCc3ccccc3)C=CC3C(=O)N(c4ccccc4)C(=O)C32)cc1 (stereo unspecified)",
    "z-score": -0.152
  }
]
